Experimental protocol: Pharmacokinetics of migalastat HCl in a Fabry patient with severe renal impairment (P3, 2004-5029; Example 6)
Type: in vivo, human
Condition summary: human, plasma, Severe RI Fabry patient 2004-5029 (P3), CLcr 19, 8/17, Q4D regimen; read-out: C48 h
Protocol: Migalastat levels can be measured via methods known in the art. […] Microcentrifuge tubes containing 100 μl of the tissue homogenate or 50 μl of plasma may then be spiked with 500 ng/mL 13C d2-AT1001 HCl internal standard (manufactured by MDS Pharma Services). A 600 μl volume of 5 mM HCl in 95/5 MeOH:H2O can then be added and the tubes vortexed for 2 minutes, followed by centrifugation at 21000×g for 10 minutes at room temperature. […]
Quantity name: concentration at 48 h (ng/mL)
Give bare numbers, in ng/mL.

Asked: State the recorded concentration at 48 h for this entry: OC[C@H]1NC[C@H](O)[C@@H](O)[C@H]1O
Given back: 130
